Recorded pIC50, one value per entry.
test: Inhibition of wild-type Pseudomonas aeruginosa DNA gyrase supercoiling activity using relaxed pBR322 DNA as substrate by ethidium bromide based agarose gel electrophoresis
pIC50 field: float, defined as -log10 of concentration (mol/L).

Worked examples follow.
// query Which measured pIC50 value corresponds to COc1ccc2ccc(=O)n(C[C@H](O)[C@@H]3CC[C@@H](NCc4cc5c(cn4)OCCO5)CO3)c2n1 ?
// result 6.90

// query Which measured pIC50 value corresponds to COc1ccc2ncc(F)c(C[C@H](O)[C@@H]3CC[C@@H](NCc4ccc5c(n4)NC(=O)CO5)CO3)c2n1 ?
// result 6.90

// query Which measured pIC50 value corresponds to COc1ccc2nccc(CC(N)[C@@H]3CC[C@@H](NCc4ccc5c(n4)NC(=O)CO5)CO3)c2n1 (mixture of isomers) ?
// result 6.30

// query Which measured pIC50 value corresponds to COc1ccc2nccc(C[C@H](N)[C@@H]3CC[C@@H](NCc4ccc5c(n4)NC(=O)CO5)CO3)c2n1 ?
// result 6.90

// query Which measured pIC50 value corresponds to COc1ccc2ncc(F)c(CC(N)[C@@H]3CC[C@@H](NCc4ccc5c(n4)NC(=O)CO5)CO3)c2n1 (mixture of isomers) ?
// result 7.52

Further cases:
// query Which measured pIC50 value corresponds to O=C(O)c1cn(C2CC2)c2cc(N3CCNCC3)c(F)cc2c1=O [CIPROFLOXACIN] ?
// result 6.30

// query Which measured pIC50 value corresponds to COc1ccc2ncc(=O)n(C[C@H](N)[C@@H]3CC[C@@H](NCc4ccc5c(n4)NC(=O)CO5)CO3)c2n1 ?
// result 6.90

// query Which measured pIC50 value corresponds to COc1ccc2nccc(C(N)C[C@@H]3CC[C@@H](NCc4ccc5c(n4)NC(=O)CO5)CO3)c2n1 (mixture of isomers) ?
// result 6.30

// query Which measured pIC50 value corresponds to COc1ccc2ncc(F)c(C[C@@H](N)[C@@H]3CC[C@@H](NCc4ccc5c(n4)NC(=O)CO5)CO3)c2n1 ?
// result 6.90

// query Which measured pIC50 value corresponds to COc1ccc2ncc(=O)n(C[C@H](N)[C@@H]3CC[C@@H](NCc4ccc5c(n4)NC(=O)CO5)CO3)c2c1 ?
// result 7.52

// query Which measured pIC50 value corresponds to COc1ccc2ccc(=O)n(C[C@H](N)[C@@H]3CC[C@@H](NCc4ccc5c(n4)NC(=O)CO5)CO3)c2c1 ?
// result 6.90

// query Which measured pIC50 value corresponds to COc1ccc2ccc(=O)n(C[C@H](O)[C@@H]3CC[C@@H](NCc4cc5c(nn4)OCCS5)CO3)c2n1 ?
// result 6.30

// query Which measured pIC50 value corresponds to COc1ccc2ccc(=O)n(C[C@H](N)[C@@H]3CC[C@@H](NCc4ccc5c(n4)NC(=O)CO5)CO3)c2n1 ?
// result 6.90

// query Which measured pIC50 value corresponds to COc1cnc2ccc(=O)n(C[C@H](N)[C@@H]3CC[C@@H](NCc4ccc5c(n4)NC(=O)CO5)CO3)c2c1 ?
// result 7.52

// query Which measured pIC50 value corresponds to COc1ccc2ccc(=O)n(C[C@H](O)[C@@H]3CC[C@@H](NCc4ccc5c(n4)NC(=O)CO5)CO3)c2n1 ?
// result 6.90

// query Which measured pIC50 value corresponds to COc1cnc2ccc(=O)n(C[C@H](N)[C@@H]3CC[C@@H](NCc4ccc5c(n4)NC(=O)CO5)CO3)c2n1 ?
// result 6.90

// query Which measured pIC50 value corresponds to COc1ccc2ccc(=O)n(C[C@H](O)[C@@H]3CC[C@@H](NCc4cc5c(cn4)OCCS5)CO3)c2n1 ?
// result 6.30

Reference source for all entries: ChEMBL document CHEMBL4049439
